# subject.of.test: T1, EsCas13d, nuclease-dead (Eubacterium siraeum, UniProt B0MS50, R295A;H300A;R849A;H854A)
# T1 sequence: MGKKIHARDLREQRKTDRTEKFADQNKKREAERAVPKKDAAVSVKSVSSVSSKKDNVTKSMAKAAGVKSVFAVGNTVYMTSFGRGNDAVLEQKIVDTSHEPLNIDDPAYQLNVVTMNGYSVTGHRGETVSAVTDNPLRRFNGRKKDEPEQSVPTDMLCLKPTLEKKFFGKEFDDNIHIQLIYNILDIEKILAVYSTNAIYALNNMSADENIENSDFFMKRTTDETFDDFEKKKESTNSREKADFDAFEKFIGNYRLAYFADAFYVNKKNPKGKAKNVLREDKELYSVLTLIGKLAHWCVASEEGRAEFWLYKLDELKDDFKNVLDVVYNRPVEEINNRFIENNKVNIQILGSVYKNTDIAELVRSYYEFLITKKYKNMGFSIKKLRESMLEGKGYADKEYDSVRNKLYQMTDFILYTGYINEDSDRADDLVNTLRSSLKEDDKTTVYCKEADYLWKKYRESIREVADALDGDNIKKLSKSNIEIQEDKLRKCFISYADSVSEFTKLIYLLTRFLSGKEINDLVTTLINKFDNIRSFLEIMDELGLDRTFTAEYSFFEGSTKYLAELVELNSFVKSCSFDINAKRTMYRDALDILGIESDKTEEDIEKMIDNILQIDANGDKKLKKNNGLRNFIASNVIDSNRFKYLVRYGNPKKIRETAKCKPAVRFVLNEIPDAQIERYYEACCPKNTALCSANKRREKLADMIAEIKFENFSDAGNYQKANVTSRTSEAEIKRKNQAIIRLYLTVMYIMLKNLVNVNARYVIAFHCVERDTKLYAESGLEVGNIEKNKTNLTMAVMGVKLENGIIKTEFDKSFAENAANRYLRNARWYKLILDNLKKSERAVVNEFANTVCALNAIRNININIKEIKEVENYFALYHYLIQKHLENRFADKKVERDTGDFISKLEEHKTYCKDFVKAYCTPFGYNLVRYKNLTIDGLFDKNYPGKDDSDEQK
# method.description: crRNA (strand 1, pre-loaded); Mg2+; 40 mM Tris-HCl pH 7.5, 150 mM NaCl, 6 mM MgCl2, 1 mM DTT, 0.1% Tween-20, 0.2 mg/ml BSA; 25 C; 10 min per concentration, then washed
# recorded.conditions: tags: His6-TwinStrep-SUMO cleaved; N-terminal SNAP kept (SNAP-Surface 488); label: 3' end held by stalled T7 RNA polymerase
Measured Kd accompanies every entry in the list below.

binder	Kd
target 1 insU 3' of 7,insU 3' of 7 (mixed) RNA 1: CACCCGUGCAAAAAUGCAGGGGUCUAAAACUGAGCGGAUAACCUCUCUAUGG RNA 2: GGGAAUGGAUCCACAUCUACGAAUUCGUACCAUAGAGAGGUUAUCUUCGCUCACCGAGAUCGGAAGAGCACACGU	7.9 nM
target 1 MT 5'PFS GCC 3'PFS CUC (mixed) RNA 1: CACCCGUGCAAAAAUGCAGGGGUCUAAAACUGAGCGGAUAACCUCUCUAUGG RNA 2: GGGAAUGGAUCCACAUCUACGAAUUCGCCCCAUAGAGAGGUUAUCCGCUCACUCAGAUCGGAAGAGCACACGU	33 nM
target 1 insC 3' of 17,insU 3' of 2 (mixed) RNA 1: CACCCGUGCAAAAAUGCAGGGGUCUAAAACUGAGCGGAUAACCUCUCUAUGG RNA 2: GGGAAUGGAUCCACAUCUACGAAUUCGUACCAUAGCAGAGGUUAUCCGCUCUACCGAGAUCGGAAGAGCACACGU	55 nM
target 1 MT (mixed) RNA 1: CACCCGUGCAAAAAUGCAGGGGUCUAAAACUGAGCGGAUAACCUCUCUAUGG RNA 2: GGGAAUGGAUCCACAUCUACGAAUUCGUACCAUAGAGAGGUUAUCCGCUCACCGAGAUCGGAAGAGCACACGU	8.62 nM
target 2 MT 5'PFS CUG 3'PFS UUG (mixed) RNA 1: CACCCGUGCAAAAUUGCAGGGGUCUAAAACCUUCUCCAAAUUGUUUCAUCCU RNA 2: GGGAAUGGAUCCACAUCUACGAAUUCCUGAGGAUGAAACAAUUUGGAGAAGUUGAGAUCGGAAGAGCACACGU	5.8 nM
target 1 insU 3' of 12,insA 3' of 8 (mixed) RNA 1: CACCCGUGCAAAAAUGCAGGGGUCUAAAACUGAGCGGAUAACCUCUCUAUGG RNA 2: GGGAAUGGAUCCACAUCUACGAAUUCGUACCAUAGAGAGGUUUAUACCGCUCACCGAGAUCGGAAGAGCACACGU	12.3 nM
target 1 U8C,U19C (mixed) RNA 1: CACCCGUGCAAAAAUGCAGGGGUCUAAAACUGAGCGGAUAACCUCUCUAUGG RNA 2: GGGAAUGGAUCCACAUCUACGAAUUCGUACCACAGAGAGGUUACCCGCUCACCGAGAUCGGAAGAGCACACGU	41.1 nM
target 1 MT 5'PFS GCC 3'PFS CAU (mixed) RNA 1: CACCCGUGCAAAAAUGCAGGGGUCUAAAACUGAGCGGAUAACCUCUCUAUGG RNA 2: GGGAAUGGAUCCACAUCUACGAAUUCGCCCCAUAGAGAGGUUAUCCGCUCACAUAGAUCGGAAGAGCACACGU	~12 nM

Entry source: paper PMC10786891
